Consider the following variants and their measured sfGFP reporter fluorescence readings.
B1: library; a variant is named by its letters at X, in order (parent)
chain: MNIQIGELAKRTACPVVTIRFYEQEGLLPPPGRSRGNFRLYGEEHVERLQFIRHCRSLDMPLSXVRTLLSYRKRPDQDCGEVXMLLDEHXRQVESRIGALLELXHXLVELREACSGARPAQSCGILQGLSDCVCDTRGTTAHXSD

# Variants of: B1
# test_description: sfGFP reporter fluorescence (15 h) (µM FITC); higher = stronger transcriptional activation
# protocol_conditions: library round: Round 3b; ligand: 1 µM Pb
value_type: sfGFP reporter fluorescence

>  <monomer_sequence>
MNIQIGELAKRTACPVVTIRFYEQEGLLPPPGRSRGNFRLYGEEHVERLQFIRHCRSLDMPLSKVRTLLSYRKRPDQDCGEVNMLLDEHARQVESRIGALLELKHALVELREACSGARPAQSCGILQGLSDCVCDTRGTTAHTSD [KNAKAT]

>  <value_type>
sfGFP reporter fluorescence

>  <endpoint_result>
0.353

$$$$
>  <monomer_sequence>
MNIQIGELAKRTACPVVTIRFYEQEGLLPPPGRSRGNFRLYGEEHVERLQFIRHCRSLDMPLSKVRTLLSYRKRPDQDCGEVFMLLDEHARQVESRIGALLELTHELVELREACSGARPAQSCGILQGLSDCVCDTRGTTAHRSD [KFATER]

>  <value_type>
sfGFP reporter fluorescence

>  <endpoint_result>
0.594

$$$$
>  <monomer_sequence>
MNIQIGELAKRTACPVVTIRFYEQEGLLPPPGRSRGNFRLYGEEHVERLQFIRHCRSLDMPLSKVRTLLSYRKRPDQDCGEVFMLLDEHIRQVESRIGALLELVHELVELREACSGARPAQSCGILQGLSDCVCDTRGTTAHPSD [KFIVEP]

>  <value_type>
sfGFP reporter fluorescence

>  <endpoint_result>
0.567

$$$$
>  <monomer_sequence>
MNIQIGELAKRTACPVVTIRFYEQEGLLPPPGRSRGNFRLYGEEHVERLQFIRHCRSLDMPLSKVRTLLSYRKRPDQDCGEVNMLLDEHARQVESRIGALLELVHALVELREACSGARPAQSCGILQGLSDCVCDTRGTTAHPSD [KNAVAP]

>  <value_type>
sfGFP reporter fluorescence

>  <endpoint_result>
0.142

$$$$
>  <monomer_sequence>
MNIQIGELAKRTACPVVTIRFYEQEGLLPPPGRSRGNFRLYGEEHVERLQFIRHCRSLDMPLSKVRTLLSYRKRPDQDCGEVIMLLDEHARQVESRIGALLELKHELVELREACSGARPAQSCGILQGLSDCVCDTRGTTAHPSD [KIAKEP]

>  <value_type>
sfGFP reporter fluorescence

>  <endpoint_result>
0.387

$$$$
>  <monomer_sequence>
MNIQIGELAKRTACPVVTIRFYEQEGLLPPPGRSRGNFRLYGEEHVERLQFIRHCRSLDMPLSKVRTLLSYRKRPDQDCGEVFMLLDEHARQVESRIGALLELTHELVELREACSGARPAQSCGILQGLSDCVCDTRGTTAHPSD [KFATEP]

>  <value_type>
sfGFP reporter fluorescence

>  <endpoint_result>
0.442

$$$$
>  <monomer_sequence>
MNIQIGELAKRTACPVVTIRFYEQEGLLPPPGRSRGNFRLYGEEHVERLQFIRHCRSLDMPLSKVRTLLSYRKRPDQDCGEVIMLLDEHIRQVESRIGALLELTHELVELREACSGARPAQSCGILQGLSDCVCDTRGTTAHTSD [KIITET]

>  <value_type>
sfGFP reporter fluorescence

>  <endpoint_result>
0.265

$$$$
>  <monomer_sequence>
MNIQIGELAKRTACPVVTIRFYEQEGLLPPPGRSRGNFRLYGEEHVERLQFIRHCRSLDMPLSDVRTLLSYRKRPDQDCGEVNMLLDEHARQVESRIGALLELTHELVELREACSGARPAQSCGILQGLSDCVCDTRGTTAHRSD [DNATER]

>  <value_type>
sfGFP reporter fluorescence

>  <endpoint_result>
0.0458

$$$$
>  <monomer_sequence>
MNIQIGELAKRTACPVVTIRFYEQEGLLPPPGRSRGNFRLYGEEHVERLQFIRHCRSLDMPLSKVRTLLSYRKRPDQDCGEVFMLLDEHARQVESRIGALLELVHELVELREACSGARPAQSCGILQGLSDCVCDTRGTTAHTSD [KFAVET]

>  <value_type>
sfGFP reporter fluorescence

>  <endpoint_result>
0.41

$$$$
>  <monomer_sequence>
MNIQIGELAKRTACPVVTIRFYEQEGLLPPPGRSRGNFRLYGEEHVERLQFIRHCRSLDMPLSKVRTLLSYRKRPDQDCGEVFMLLDEHARQVESRIGALLELVHELVELREACSGARPAQSCGILQGLSDCVCDTRGTTAHRSD [KFAVER]

>  <value_type>
sfGFP reporter fluorescence

>  <endpoint_result>
0.51

$$$$
>  <monomer_sequence>
MNIQIGELAKRTACPVVTIRFYEQEGLLPPPGRSRGNFRLYGEEHVERLQFIRHCRSLDMPLSKVRTLLSYRKRPDQDCGEVFMLLDEHIRQVESRIGALLELTHALVELREACSGARPAQSCGILQGLSDCVCDTRGTTAHRSD [KFITAR]

>  <value_type>
sfGFP reporter fluorescence

>  <endpoint_result>
0.394

$$$$
